Molecular target: IGFBP-5 (Homo sapiens, UniProt P24593)
Construct: His-tag (N); T7-tag (pET-28a construct only) (N); made in house; host or cells: E. coli BL21
Assay: Detection of ligand binding by 15N-HSQC NMR titration
Settings: average over residues; read-out: ligand in PBS KD
Description: Ligand binding was detected by acquiring ^15N—HSQC spectra. All NMR spectra were acquired at 300 K on Bruker DRX600 spectrometer. The samples for NMR spectroscopy were concentrated and dialyzed against PBS buffer. Typically, the sample concentration was varied from 0.3 to 1.0 mM. Before measuring, the sample was centrifuged in order to sediment aggregates and other macroscopic particles. […] The binding was monitored by observation of the changes in the ^15N—HSQC spectrum. […]
reported-metric: Kd (µM)

structure_smiles_string=O=C(N[C@@H](Cc1ccc(OP(=O)(O)O)cc1)C(=O)O)OCC1c2ccccc2-c2ccccc21 reported_measurement=2210

* * *

target: IGFBP-5 (Homo sapiens); construct: His-tag (N); T7-tag (pET-28a construct only) (N); made in house; host or cells: E. coli BL21; test: Detection of ligand binding by 15N-HSQC NMR titration; details: residue Y86; read-out: ligand in PBS KD
reported-metric: Kd (µM)

structure_smiles_string=O=C(N[C@@H](Cc1ccc(OP(=O)(O)O)cc1)C(=O)O)OCC1c2ccccc2-c2ccccc21 test_target="IGFBP-5 (Homo sapiens)" reported_metric=Kd reported_measurement=1720

* * *

biological target: IGFBP-5 (Homo sapiens, UniProt P24593); construct: His-tag (N); T7-tag (pET-28a construct only) (N); made in house; host or cells: E. coli BL21; experiment: Detection of ligand binding by 15N-HSQC NMR titration; settings: residue S85; read-out: ligand in PBS KD
pKd: −log10 of the molar value.
reported-metric: pKd

structure_smiles_string=O=C(N[C@@H](Cc1ccc(OP(=O)(O)O)cc1)C(=O)O)OCC1c2ccccc2-c2ccccc21 reported_metric=pKd reported_measurement=2.63

* * *

target: IGFBP-5 (Homo sapiens); construct: His-tag (N); T7-tag (pET-28a construct only) (N); made in house; host or cells: E. coli BL21; experiment: Detection of ligand binding by 15N-HSQC NMR titration; conditions: residue R87; read-out: ligand in DMSO KD
reported-metric: Kd

structure_smiles_string=O=C(N[C@@H](Cc1ccc(OP(=O)(O)O)cc1)C(=O)O)OCC1c2ccccc2-c2ccccc21 test_target="IGFBP-5 (Homo sapiens)" reported_metric=Kd reported_measurement="1640 µM"

* * *

target: IGFBP-5 (Homo sapiens); construct: His-tag (N); T7-tag (pET-28a construct only) (N); made in house; host or cells: E. coli BL21; experiment: Detection of ligand binding by 15N-HSQC NMR titration; conditions: residue Y50; read-out: ligand in DMSO KD
pKd: −log10 of the molar value.
reported-metric: pKd

structure_smiles_string=O=C(N[C@@H](Cc1ccc(OP(=O)(O)O)cc1)C(=O)O)OCC1c2ccccc2-c2ccccc21 test_target="IGFBP-5 (Homo sapiens)" reported_metric=pKd reported_measurement=2.80

* * *

biological target: IGFBP-5 (Homo sapiens); construct: His-tag (N); T7-tag (pET-28a construct only) (N); made in house; host or cells: E. coli BL21; experiment: Detection of ligand binding by 15N-HSQC NMR titration; conditions: residue Y86; read-out: ligand in DMSO KD
pKd: −log10 of the molar value.
reported-metric: pKd

structure_smiles_string=O=C(N[C@@H](Cc1ccc(OP(=O)(O)O)cc1)C(=O)O)OCC1c2ccccc2-c2ccccc21 reported_metric=pKd reported_measurement=2.72
